The origin of these recorded values is patent US20180222987A1.

Target: Macaca fascicularis CD3ε/δ-Fc fusion heterodimer (Macaca fascicularis) (UniProt Q95LI8)
Sequence (chain, as listed by the source mutant, chain 1 of 2): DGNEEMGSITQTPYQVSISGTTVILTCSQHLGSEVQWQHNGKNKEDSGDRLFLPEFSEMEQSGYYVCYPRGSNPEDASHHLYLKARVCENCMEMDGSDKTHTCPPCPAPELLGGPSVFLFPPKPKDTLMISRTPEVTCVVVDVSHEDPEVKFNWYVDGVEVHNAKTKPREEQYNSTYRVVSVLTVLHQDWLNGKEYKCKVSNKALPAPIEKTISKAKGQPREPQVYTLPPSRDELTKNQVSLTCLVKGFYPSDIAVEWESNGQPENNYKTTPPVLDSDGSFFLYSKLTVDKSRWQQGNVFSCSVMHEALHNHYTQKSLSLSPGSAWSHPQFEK
Sequence (Q95LI8 22-105, stated change not applied, chain 2 of 2): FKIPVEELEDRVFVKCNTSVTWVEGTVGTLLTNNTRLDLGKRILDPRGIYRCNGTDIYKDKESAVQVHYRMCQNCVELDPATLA
Assay: SPR, cyno against human CD3ε/δ
test readout: ratio KD(cy)/KD(hu)
Give bare numbers.

Some binders with recorded ratio KD(cy)/KD(hu):
binder	test readout	assay result
5B1-G2 Fab (Fab, V domains shown) VH: EVQVVETGGSLVQPGKSLKLTCATSGFSFSNAWMHWVRQSPEKQLEWVAQIKDKANNYATYYAESVKGRFTISRDDSKGSIYLQMNSLKEEDTAVYYCRGLYYGLFPSDYWGQGVMVTVSS VL: DVVMTQTPVSLSVSLGGQVSISCRSSQSLVHNNGNTYLSWYLLKPGQSPQLLIYKVSNRFSGISDRFSGGGSGTDFTLKISRLEPDDLGIYYCGQGTQYPFTFGSGTKLEIK	ratio KD(cy)/KD(hu)	1
1E6 Fab (Fab, V domains shown) VH: EVQLVETGGSLVQPGKSLKLTCATSGFTFSYAWMHWVRQSPDKQLQWVAQIKAKSNNYATYYAESVEGRFTISRDDSKSSVYLQMNSLKEEDTAIYYCRGVYYGLLGLDAWGQGTSVTVSS VL: DVVMTQTPVSLSVRLGGQVSISCRSSQSLVHNNGNTYLSWFLQKPGQSPQLLIYKVSNRFSGISDRFSGSASGTDFTLKISRVEPDDLGVYYCGQGTHYPFTFGSGTKLEIK	ratio KD(cy)/KD(hu)	1
13H2 Fab (Fab, V domains shown) VH: EEELVETGGSLVQPGKSLKLTCATSGFTFSNAWMHWVRQSPDKQLEWVAQIKAKSNNYATYYAESVKGRFTISRDDSKSSVYLQMNNLKEEDTAIYYCRYVHYGLAPMDAWGQGTSVTVSS VL: DVVMTQTPVSLSVSLGGQVSISCRSSQSLVHNNGNTYLSWYLQKAGQSPQLLIYKVSNRFSGISDRFSGSGSGTDFILKISRVEPDDLGVFYCGQGTQYPFTFGAGTKLELK	ratio KD(cy)/KD(hu)	1

# next binder below
Value lookup for ratio KD(cy)/KD(hu); key = 12D2-E5 Fab (Fab, V domains shown) VH: EVKLVESGGGLVQPGRSLRLSCAASGFNFYAYWMGWVRQAPGKGLEWIGEIKKDGTTINYTPSLKDRFTISRDNAQNTLYLQMTKLGSEDTALYYCAREERDGYFDYWGQGVMVTVSS VL: QFVLTQPNSVSTNLGSTVKLSCKRSTGNIGSNYVNWYQQHEGRSPTTMIYRDDKRPDGVPDRFSGSIDRSSNSALLTINNVQTEDEADYFCQSYSSGIVFGGGTKLTVL
4
